Experiment: chemical genetic growth profiling, strain panel (AID 1159580);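 also: tested at 20 µM; growth read once vehicle control cultures reached saturation at 30 °C; 1 = growth at the plate median or of vehicle wells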
Conditions: S. cerevisiae deletion strains, growth OD, locus YGR078C, strain PAC10, stronger effect = lower value
In all, about 5,500 compounds went through this assay and about 2,000 (36%) were called active. About 18% were inconclusive and are not listed. Some of the results follow.
Returns: string. Value is Condition met if measured normalized growth is below 0.9, and Condition not met if it is greater than or equal to it.

Reference set, count: 5
compound: CCOC(=O)c1sc(S(C)(=O)=O)c2c1CCCC2O (stereo not drawn)
class.assignment: Condition not met
--
compound: CCC1(O)CC2CN(CCc3c([nH]c4ccccc34)[C@@](C(=O)OC)(c3cc4c(cc3OC)N(C=O)C3[C@]45CCN4CC=C[C@@](CC)([C@@H](OC(C)=O)[C@]3(O)C(=O)OC)[C@H]45)C2)C1 (stereo partly drawn)
class.assignment: Condition not met
--
compound: C/C(=N/NC(=S)Nc1ccc(C(C)C)cc1)c1ccco1
class.assignment: Condition met
--
compound: c1ccc(-c2ccccn2)nc1
class.assignment: Condition not met
--
compound: COc1cc(OC)c2c(=O)c(O)c(-c3ccc(OC)c(OC)c3)oc2c1
class.assignment: Condition met

Item `O=[N+]([O-])c1ccc(Oc2cccc3cccnc23)cc1` : normalized growth beneath 0.9, strictly?
Condition not met

Would you kindly verify if normalized growth of `COc1cc2occc2c2oc(=O)ccc12` is strictly less than 0.9?
Condition not met

----------
Test: chemical genetic growth profiling, strain panel (AID 1159580);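 also: tested at 20 µM; growth read once vehicle control cultures reached saturation at 30 °C; 1 = growth at the plate median or of vehicle wells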
Conditions: S. cerevisiae deletion strains, growth OD, locus YOR270C, strain vph1, stronger effect = lower value
Out of some 5,500 compounds screened, about 2,000 (36%) were called active. About 18% were inconclusive and are not listed. The list shows a part of the results.
recorded.metric: normalized growth

Would you please look over these solved cases?
molecule: CC1(C)C(=O)C=C[C@@]2(C)C1CC(=O)[C@]1(C)C2CC[C@@]2(C)[C@H](c3ccoc3)OC(=O)[C@H]3O[C@]321 (stereo partly drawn)
normalized growth: 0.993 (inactive)
--
molecule: COc1ccc2ccc(=O)oc2c1
normalized growth: 1.07 (inactive)
--
molecule: CN(C)c1ccc2nc3ccc(=[N+](C)C)cc-3sc2c1
normalized growth: 0.983 (inactive)
--
molecule: COc1c2ccoc2cc2oc(=O)ccc12
normalized growth: 0.751 (active)
--
molecule: CCC(N)C(O)c1ccc(O)c(O)c1 (stereo not drawn)
normalized growth: 1.02 (inactive)
--
molecule: CCCCOc1cc(C(=O)NCCN(CC)CC)c2ccccc2n1
normalized growth: 0.933 (inactive)
--
molecule: CC1(C)C(=O)C=C[C@@]2(C)C1C=C[C@]1(C)C2CC[C@@]2(C)[C@H](c3ccoc3)OC(=O)C3OC321 (stereo partly drawn)
normalized growth: 0.905 (inactive)
--
molecule: Cc1cc(OC(=O)c2c(C)cc(O)cc2O)cc(O)c1C(=O)O
normalized growth: 0.99 (inactive)

I have 2 molecules here; please give me normalized growth for each one.
1. COc1cc2occc2c2oc(=O)ccc12
2. CCOC(=O)c1c(C)cc(O)cc1O

1: 0.934 (inactive); 2: 0.721 (active)

Dear colleague, could you send me normalized growth for each of the items below? Thanks.
1. CC1(C)C2CC(=O)[C@]3(C)C(CC[C@@]4(C)[C@H](c5ccoc5)OC(=O)[C@H]5O[C@]543)[C@@]2(C)C(=O)C[C@H]1O (stereo partly drawn)
2. COC(=O)c1c(C)cc(OC)cc1O
3. C=C[C@H]1CN2CC[C@H]1C[C@@H]2[C@@H](OC(=O)OCC)c1ccnc2ccc(OC)cc12

0.948 (inactive)
0.891 (inactive)
1.07 (inactive)
